# target-or-test-system: T1, 16TR-MUC1-Tn (human, UniProt P15941 126-445, limits assumed, Tn glycoform (GalNAcα1-O-Ser/Thr); glycosylated sites of the reagent not stated)
# T1 construct: domain: 16TR; also called Tn-MUC1; TnMUC1
# T1 sequence (P15941 126-445 limits assumed): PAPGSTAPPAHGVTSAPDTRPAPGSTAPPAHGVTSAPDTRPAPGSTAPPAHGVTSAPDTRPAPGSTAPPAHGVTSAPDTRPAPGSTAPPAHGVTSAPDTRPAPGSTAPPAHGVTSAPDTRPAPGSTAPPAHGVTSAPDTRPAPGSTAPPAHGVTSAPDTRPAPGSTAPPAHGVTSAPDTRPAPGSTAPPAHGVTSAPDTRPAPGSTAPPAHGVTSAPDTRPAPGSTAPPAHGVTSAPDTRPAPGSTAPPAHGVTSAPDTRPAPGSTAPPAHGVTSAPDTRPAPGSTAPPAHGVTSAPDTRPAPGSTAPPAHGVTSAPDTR
# assay-summary: Tn-MUC1 binding ELISA (protocol 4), plate-coated 16TR-MUC1-Tn
reported-endpoint: EC50 (µg/mL)

{"binder": "Ab2 (antibody, V domains shown, Expressed as human IgG1/kappa from pFUSE-CHIg-hG1 and pFUSE2-CLIg-hk vectors; also called 5E5RHB10 / 5E5RKA) VH: EVQLVQSGAEVKKPGESLKISCKISGYIFTDHAIHWVRQMPGKGLEWMGHFSPGNTDIKYNDKFKGQVTLSVDRSINTAYLQWSSLKASDTAIYFCKTSTFFFDYWGQGTRVTVSS VL: DIVMTQSPDSLAVSLGERATINCKSSQSLLNSGDQKNYLTWYQQKPGQPPKLLIYWASTRESGVPDRFSGSGSGTDFTLTISSLQAEDVAVYYCQNDYSYPLTFGQGTKVEIK", "reported-endpoint": "EC50", "units-text": "µg/mL", "observed": 0.0345}
{"binder": "Ab6 (antibody, human IgG1, V domains shown, Expressed as human IgG1/kappa from pFUSE-CHIg-hG1 and pFUSE2-CLIg-hk vectors; also called 5E5RHC9 / 5E5RKB) VH: EVQLVESGAEVKKPGASVEVSCQASGYTFTDHAIHWVRQAPGQGLEWMGHFSPGNTDIKYNDKFKGRVTMTVDRSINTAYMELRRLRSDDTAVYYCKTSTFFFDYWGQGTMVTVSS VL: DIVMTQSPLSLPVTPGEPASISCKSSQSLLNSGDQKNYLTWYLQKPGQSPQLLIYWASTRESGVPDRFSGSGSGTDFTLKISRVEAEDVGVYYCQNDYSYPLTFGGGTKVEIK", "reported-endpoint": "EC50", "units-text": "µg/mL", "observed": 0.0198}
{"binder": "Ab4 (antibody, human IgG1, V domains shown, Expressed as human IgG1/kappa from pFUSE-CHIg-hG1 and pFUSE2-CLIg-hk vectors; also called 5E5RHA8 / 5E5RKB) VH: QVQLVQSGAEVKKTGSSVKVSCKASGYTFTDHAIHWVRQAPGQALEWMGHFSPGNTDIKYNDKFKGRVTLTVDRSMSTAYMELSSLRSEDTAMYYCKTSTFFFDYWGQGTMVTVSS VL: DIVMTQSPLSLPVTPGEPASISCKSSQSLLNSGDQKNYLTWYLQKPGQSPQLLIYWASTRESGVPDRFSGSGSGTDFTLKISRVEAEDVGVYYCQNDYSYPLTFGGGTKVEIK", "reported-endpoint": "EC50", "units-text": "µg/mL", "observed": 0.0755}
{"binder": "Ab1 (antibody, V domains shown, Expressed as human IgG1/kappa from pFUSE-CHIg-hG1 and pFUSE2-CLIg-hk vectors; also called 5E5RHA8 / 5E5RKA) VH: QVQLVQSGAEVKKTGSSVKVSCKASGYTFTDHAIHWVRQAPGQALEWMGHFSPGNTDIKYNDKFKGRVTLTVDRSMSTAYMELSSLRSEDTAMYYCKTSTFFFDYWGQGTMVTVSS VL: DIVMTQSPDSLAVSLGERATINCKSSQSLLNSGDQKNYLTWYQQKPGQPPKLLIYWASTRESGVPDRFSGSGSGTDFTLTISSLQAEDVAVYYCQNDYSYPLTFGQGTKVEIK", "reported-endpoint": "EC50", "units-text": "µg/mL", "observed": 0.0246}
{"binder": "Mouse 5E5 (antibody, V domains shown, V regions were subcloned into pFUSE-CHIg-hG1 (human IgG1) and pFUSE2-CLIg-hk (human kappa) vectors and expressed in HEK293 cells; also called mouse 5E5 antibody; 5E5VH/5E5VK) VH: QVQLQQSDAELVKPGSSVKISCKASGYTFTDHAIHWVKQKPEQGLEWIGHFSPGNTDIKYNDKFKGKATLTVDRSSSTAYMQLNSLTSEDSAVYFCKTSTFFFDYWGQGTTLTVSS VL: DIVMTQSPSSLTVTAGEKVTMICKSSQSLLNSGDQKNYLTWYQQKPGQPPKLLIFWASTRESGVPDRFTGSGSGTDFTLTISSVQAEDLAVYYCQNDYSYPLTFGAGTKLELK", "reported-endpoint": "EC50", "units-text": "µg/mL", "observed": 0.0311}
{"binder": "Ab5 (antibody, human IgG1, V domains shown, Expressed as human IgG1/kappa from pFUSE-CHIg-hG1 and pFUSE2-CLIg-hk vectors; also called 5E5RHB10 / 5E5RKB) VH: EVQLVQSGAEVKKPGESLKISCKISGYIFTDHAIHWVRQMPGKGLEWMGHFSPGNTDIKYNDKFKGQVTLSVDRSINTAYLQWSSLKASDTAIYFCKTSTFFFDYWGQGTRVTVSS VL: DIVMTQSPLSLPVTPGEPASISCKSSQSLLNSGDQKNYLTWYLQKPGQSPQLLIYWASTRESGVPDRFSGSGSGTDFTLKISRVEAEDVGVYYCQNDYSYPLTFGGGTKVEIK", "reported-endpoint": "EC50", "units-text": "µg/mL", "observed": 0.0269}
{"binder": "Ab3 (antibody, V domains shown, Expressed as human IgG1/kappa from pFUSE-CHIg-hG1 and pFUSE2-CLIg-hk vectors; also called 5E5RHC9 / 5E5RKA) VH: EVQLVESGAEVKKPGASVEVSCQASGYTFTDHAIHWVRQAPGQGLEWMGHFSPGNTDIKYNDKFKGRVTMTVDRSINTAYMELRRLRSDDTAVYYCKTSTFFFDYWGQGTMVTVSS VL: DIVMTQSPDSLAVSLGERATINCKSSQSLLNSGDQKNYLTWYQQKPGQPPKLLIYWASTRESGVPDRFSGSGSGTDFTLTISSLQAEDVAVYYCQNDYSYPLTFGQGTKVEIK", "reported-endpoint": "EC50", "units-text": "µg/mL", "observed": 0.0615}
